Examples of molecules with documented %Inh follow.
system: ACVR2B; details: concentration: 1 μM, replicates: in singlicate; n = 1;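 also: KINOMEscan kinase panel screen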
experimentalReadout: %Inh (%)

>  <chemicalStructure>
Fc1ccc(Nc2nccc(-c3c(-c4ccc(Cl)cc4)nn4ncccc34)n2)cc1F

>  <reportedResult>
0

$$$$
>  <chemicalStructure>
CNc1nccc(-c2c(-c3ccc(F)cc3)ncn2CCCN2CCOCC2)n1

>  <reportedResult>
4

$$$$
>  <chemicalStructure>
Cc1ccc(NC(=O)c2cccc(C#N)c2)cc1-c1ccc(C(=O)Nc2ccncc2)cc1

>  <reportedResult>
0

$$$$
>  <chemicalStructure>
Fc1ccc(-c2ncn(CCCNCc3ccccc3)c2-c2ccncc2)cc1

>  <reportedResult>
0

$$$$
>  <chemicalStructure>
FC(F)(F)c1ccc(-c2cc(-c3c[nH]nc3-c3ccccn3)ccn2)cc1

>  <reportedResult>
34

$$$$
>  <chemicalStructure>
Nc1nccc2scc(-c3ccc4c(c3)CCN4C(=O)Cc3cc(F)ccc3F)c12

>  <reportedResult>
0

$$$$
>  <chemicalStructure>
CNc1nccc(-c2c(-c3ccc(F)cc3)ncn2C2CCN(C)CC2)n1

>  <reportedResult>
0

$$$$
>  <chemicalStructure>
C[C@@H]1CCN(C(=O)CO)C[C@@H]1N(C)c1ncnc2[nH]ccc12

>  <reportedResult>
0

$$$$
>  <chemicalStructure>
Nc1nc(-c2ccc3c(N)n[nH]c3c2)cc(N2CCCCC2)n1

>  <reportedResult>
0

$$$$
>  <chemicalStructure>
COc1ccc(NC(=O)Nc2ccc(C)c(-c3ccc(C(=O)Nc4ccncc4)cc3)c2)cc1

>  <reportedResult>
0

$$$$

====

Examples of molecules with documented %Inh follow.
tested on: PAK3; settings: concentration: 1 μM, replicates: in singlicate; n = 1

>  <molecule>
Cl.Fc1ccccc1COc1ccc(Nc2ncnc3ccc(-c4nnc(C(F)(F)F)o4)cc23)cc1Cl [GW424170]

>  <measureUnit>
%

>  <%Inh>
0

$$$$
>  <molecule>
COc1cc2ncnc(Nc3ccc(OCc4ccccc4Br)c(Cl)c3)c2cc1OC.Cl [GI261590]

>  <measureUnit>
%

>  <%Inh>
38

$$$$
>  <molecule>
CCn1c(-c2ccncc2)nc2cnccc21 [SB-735216]

>  <measureUnit>
%

>  <%Inh>
0

$$$$
>  <molecule>
COc1ccc(Nc2nccc(N3CCC(NC(=O)c4cccc(NC(C)=O)c4)C3)n2)cc1 (stereo not shown) [GSK1379732]

>  <measureUnit>
%

>  <%Inh>
0

$$$$
>  <molecule>
O=C(NCCCN1CCCC1=O)c1cnc(NCc2cc(Cl)ccc2Cl)nc1NC1CCNCC1

>  <measureUnit>
%

>  <%Inh>
0

$$$$
>  <molecule>
Cc1cc(N2CCC(NS(=O)(=O)c3ccc(F)cc3)CC2)nc(Nc2cccc(C#N)c2)n1.O=C(O)C(F)(F)F [GSK1653537]

>  <measureUnit>
%

>  <%Inh>
6

$$$$
>  <molecule>
CCc1nc(-c2cccc(N(C)S(=O)(=O)c3ccccc3)c2)c(-c2ccnc(Nc3ccc(N4CCN(C(C)=O)CC4)nc3)n2)s1 [GSK1645895]

>  <measureUnit>
%

>  <%Inh>
0

$$$$
>  <molecule>
Oc1ccc2ncnc(Nc3ccc(OCc4ccccc4)cc3)c2c1 [GI262866]

>  <measureUnit>
%

>  <%Inh>
87

$$$$
>  <molecule>
CC(=O)Nc1n[nH]c2ncc(-c3ccccc3)cc12 [SB-548492]

>  <measureUnit>
%

>  <%Inh>
0

$$$$
>  <molecule>
CS(=O)(=O)CCNCc1nc(-c2ccc3ncnc(Nc4ccc(OCc5cccc(F)c5)c(Cl)c4)c3c2)cs1.Cl [GW583340]

>  <measureUnit>
%

>  <%Inh>
0

$$$$
